# System: MCF7
# protocol.details: Antiproliferative activity against human MCF7 cells measured after 72 hrs by MTT assay
# Format: functional, cell-based
# study.conditions: MCF7, 72 h
compounds and their reported IC50

# smiles.string, IC50
data = [
    ("CC(C)C[C@H](NC(=O)[C@@H](CCCCNC(=O)CCCCCNC(=O)CCC(=O)OC[C@H]1O[C@@H](n2ccc(N)nc2=O)C(F)(F)[C@@H]1O)NC(=O)[C@H](Cc1ccc(O)cc1)NC(=O)[C@H](CO)NC(=O)[C@H](Cc1c[nH]c2ccccc12)NC(=O)[C@H](Cc1cnc[nH]1)NC(=O)[C@@H]1CCC(=O)N1)C(=O)N[C@@H](CCCNC(=N)N)C(=O)N1CCC[C@H]1C(=O)NCC(N)=O", "55.5 nM"),
]

// fetch MCF7 IC50 for CC(C)C[C@H](NC(=O)[C@@H](CCCCN)NC(=O)[C@H](Cc1ccc(O)cc1)NC(=O)[C@H](CO)NC(=O)[C@H](Cc1c[nH]c2ccccc12)NC(=O)[C@H](Cc1cnc[nH]1)NC(=O)[C@@H]1CCC(=O)N1)C(=O)N[C@@H](CCCNC(=N)N)C(=O)N1CCC[C@H]1C(=O)NCC(N)=O
> 40000 nM

###

# Test system: MDA-MB-231
# protocol.details: Antiproliferative activity against human MDA-MB-231 cells measured after 72 hrs by MTT assay
# Assay type: functional, cell-based
# study.conditions: MDA-MB-231, 72 h
compounds and their reported pIC50
Reminder that pIC50 is minus the log10 of a molar concentration.

# smiles.string, experimental.system, pIC50
records = [
    ("Nc1ccn([C@@H]2O[C@H](CO)[C@@H](O)C2(F)F)c(=O)n1", "MDA-MB-231", 5.80),
]

Turning to the following compound.
pIC50 lookup needed for CC(C)C[C@H](NC(=O)[C@@H](CCCCNC(=O)CCCCCNC(=O)CCC(=O)OC[C@H]1O[C@@H](n2ccc(N)nc2=O)C(F)(F)[C@@H]1O)NC(=O)[C@H](Cc1ccc(O)cc1)NC(=O)[C@H](CO)NC(=O)[C@H](Cc1c[nH]c2ccccc12)NC(=O)[C@H](Cc1cnc[nH]1)NC(=O)[C@@H]1CCC(=O)N1)C(=O)N[C@@H](CCCNC(=N)N)C(=O)N1CCC[C@H]1C(=O)NCC(N)=O , thanks.
5.62

###

molecules and their reported concentration at 0.25 h
# protocol.details: Drug level in C57BL/6N mouse blood at 10 mg/kg, ip measured after 15 mins by LC-MS/MS analysis
# Assay type: ADME, organism-based
# study.conditions: whole blood, read-out: Drug uptake
Include the unit right after the number.

# smiles.string, concentration at 0.25 h
data = [
    ("CC(C)C[C@H](NC(=O)[C@@H](CCCCNC(=O)OC[C@H]1O[C@@H](n2ccc(N)nc2=O)C(F)(F)[C@@H]1O)NC(=O)[C@H](Cc1ccc(O)cc1)NC(=O)[C@H](CO)NC(=O)[C@H](Cc1c[nH]c2ccccc12)NC(=O)[C@H](Cc1cnc[nH]1)NC(=O)[C@@H]1CCC(=O)N1)C(=O)N[C@@H](CCCNC(=N)N)C(=O)N1CCC[C@H]1C(=O)NCC(N)=O", "4000 ng/mL"),
]

Turning to the following molecule.
concentration at 0.25 h lookup needed for CC(C)C[C@H](NC(=O)[C@@H](CCCCNC(=O)O[C@@H]1[C@@H](CO)O[C@@H](n2ccc(N)nc2=O)C1(F)F)NC(=O)[C@H](Cc1ccc(O)cc1)NC(=O)[C@H](CO)NC(=O)[C@H](Cc1c[nH]c2ccccc12)NC(=O)[C@H](Cc1cnc[nH]1)NC(=O)[C@@H]1CCC(=O)N1)C(=O)N[C@@H](CCCNC(=N)N)C(=O)N1CCC[C@H]1C(=O)NCC(N)=O , thanks.
4000 ng/mL

###

molecules and their reported pIC50
# experimental.system: Gonadotropin-releasing hormone receptor (Homo sapiens, UniProt P30968)
# Sequence (P30968 whole entry): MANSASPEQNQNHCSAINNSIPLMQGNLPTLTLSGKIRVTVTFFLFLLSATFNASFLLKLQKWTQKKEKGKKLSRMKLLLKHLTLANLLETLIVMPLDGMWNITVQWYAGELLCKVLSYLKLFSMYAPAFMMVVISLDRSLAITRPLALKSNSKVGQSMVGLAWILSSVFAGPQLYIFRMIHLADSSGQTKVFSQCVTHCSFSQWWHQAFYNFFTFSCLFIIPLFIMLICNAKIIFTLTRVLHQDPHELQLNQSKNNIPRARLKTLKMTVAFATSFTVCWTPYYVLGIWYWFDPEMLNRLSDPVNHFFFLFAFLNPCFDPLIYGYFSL
# protocol.details: Displacement of [125I]-D-Tyr6-His5-GnRH from recombinant human GnRH receptor expressed in HEK293 cell membrane measured after 16 to 19 hrs by gamma counting method
Reminder that pIC50 is minus the log10 of a molar concentration.

Below: 3 molecules and their reported pIC50.
# smiles.string, experimental.system, reported.result
data = [
    ("CC(C)C[C@H](NC(=O)[C@@H](CCCCNC(=O)CCCCCNC(=O)CCC(=O)OC[C@H]1O[C@@H](n2ccc(N)nc2=O)C(F)(F)[C@@H]1O)NC(=O)[C@H](Cc1ccc(O)cc1)NC(=O)[C@H](CO)NC(=O)[C@H](Cc1c[nH]c2ccccc12)NC(=O)[C@H](Cc1cnc[nH]1)NC(=O)[C@@H]1CCC(=O)N1)C(=O)N[C@@H](CCCNC(=N)N)C(=O)N1CCC[C@H]1C(=O)NCC(N)=O", "Gonadotropin-releasing hormone receptor (Homo sapiens, UniProt P30968)", 8.62),
    ("CC(C)C[C@H](NC(=O)[C@@H](CCCCNC(=O)O[C@@H]1[C@@H](CO)O[C@@H](n2ccc(N)nc2=O)C1(F)F)NC(=O)[C@H](Cc1ccc(O)cc1)NC(=O)[C@H](CO)NC(=O)[C@H](Cc1c[nH]c2ccccc12)NC(=O)[C@H](Cc1cnc[nH]1)NC(=O)[C@@H]1CCC(=O)N1)C(=O)N[C@@H](CCCNC(=N)N)C(=O)N1CCC[C@H]1C(=O)NCC(N)=O", "Gonadotropin-releasing hormone receptor (Homo sapiens, UniProt P30968)", 9.96),
    ("CC(C)C[C@H](NC(=O)[C@@H](CCCCNC(=O)OC[C@H]1O[C@@H](n2ccc(N)nc2=O)C(F)(F)[C@@H]1O)NC(=O)[C@H](Cc1ccc(O)cc1)NC(=O)[C@H](CO)NC(=O)[C@H](Cc1c[nH]c2ccccc12)NC(=O)[C@H](Cc1cnc[nH]1)NC(=O)[C@@H]1CCC(=O)N1)C(=O)N[C@@H](CCCNC(=N)N)C(=O)N1CCC[C@H]1C(=O)NCC(N)=O", "Gonadotropin-releasing hormone receptor (Homo sapiens, UniProt P30968)", 9.16),
]

Turning to the following molecule.
pIC50 lookup needed for CC(C)C[C@H](NC(=O)[C@@H](CCCCN)NC(=O)[C@H](Cc1ccc(O)cc1)NC(=O)[C@H](CO)NC(=O)[C@H](Cc1c[nH]c2ccccc12)NC(=O)[C@H](Cc1cnc[nH]1)NC(=O)[C@@H]1CCC(=O)N1)C(=O)N[C@@H](CCCNC(=N)N)C(=O)N1CCC[C@H]1C(=O)NCC(N)=O , thanks.
7.98

###

# Tested on: MCF7
# protocol.details: Antiproliferative activity against human MCF7 cells measured after 72 hrs by MTT assay
# Type: functional, cell-based
# study.conditions: MCF7, 72 h
observation.type: pIC50
Reminder that pIC50 is minus the log10 of a molar concentration.

Below: 2 compounds and their reported pIC50.
# smiles.string, pIC50
rows = [
    ("CC(C)C[C@H](NC(=O)[C@@H](CCCCNC(=O)O[C@@H]1[C@@H](CO)O[C@@H](n2ccc(N)nc2=O)C1(F)F)NC(=O)[C@H](Cc1ccc(O)cc1)NC(=O)[C@H](CO)NC(=O)[C@H](Cc1c[nH]c2ccccc12)NC(=O)[C@H](Cc1cnc[nH]1)NC(=O)[C@@H]1CCC(=O)N1)C(=O)N[C@@H](CCCNC(=N)N)C(=O)N1CCC[C@H]1C(=O)NCC(N)=O", 6.35),
    ("Nc1ccn([C@@H]2O[C@H](CO)[C@@H](O)C2(F)F)c(=O)n1", 7.42),
]

// fetch MCF7 pIC50 for CC(C)C[C@H](NC(=O)[C@@H](CCCCNC(=O)OC[C@H]1O[C@@H](n2ccc(N)nc2=O)C(F)(F)[C@@H]1O)NC(=O)[C@H](Cc1ccc(O)cc1)NC(=O)[C@H](CO)NC(=O)[C@H](Cc1c[nH]c2ccccc12)NC(=O)[C@H](Cc1cnc[nH]1)NC(=O)[C@@H]1CCC(=O)N1)C(=O)N[C@@H](CCCNC(=N)N)C(=O)N1CCC[C@H]1C(=O)NCC(N)=O
6.21

###

# Tested on: MDA-MB-231
# protocol.details: Antiproliferative activity against human MDA-MB-231 cells measured after 72 hrs by MTT assay
# Format: functional, cell-based
# study.conditions: MDA-MB-231, 72 h
pIC50: −log10 of the molar value.
observation.type: pIC50

# smiles.string, experimental.system, reported.result
records = [
    ("CC(C)C[C@H](NC(=O)[C@@H](CCCCNC(=O)OC[C@H]1O[C@@H](n2ccc(N)nc2=O)C(F)(F)[C@@H]1O)NC(=O)[C@H](Cc1ccc(O)cc1)NC(=O)[C@H](CO)NC(=O)[C@H](Cc1c[nH]c2ccccc12)NC(=O)[C@H](Cc1cnc[nH]1)NC(=O)[C@@H]1CCC(=O)N1)C(=O)N[C@@H](CCCNC(=N)N)C(=O)N1CCC[C@H]1C(=O)NCC(N)=O", "MDA-MB-231", "< 4.40"),
    ("CC(C)C[C@H](NC(=O)[C@@H](CCCCNC(=O)O[C@@H]1[C@@H](CO)O[C@@H](n2ccc(N)nc2=O)C1(F)F)NC(=O)[C@H](Cc1ccc(O)cc1)NC(=O)[C@H](CO)NC(=O)[C@H](Cc1c[nH]c2ccccc12)NC(=O)[C@H](Cc1cnc[nH]1)NC(=O)[C@@H]1CCC(=O)N1)C(=O)N[C@@H](CCCNC(=N)N)C(=O)N1CCC[C@H]1C(=O)NCC(N)=O", "MDA-MB-231", "< 4.40"),
]

Turning to the following compound.
pIC50 lookup needed for CC(C)C[C@H](NC(=O)[C@@H](CCCCN)NC(=O)[C@H](Cc1ccc(O)cc1)NC(=O)[C@H](CO)NC(=O)[C@H](Cc1c[nH]c2ccccc12)NC(=O)[C@H](Cc1cnc[nH]1)NC(=O)[C@@H]1CCC(=O)N1)C(=O)N[C@@H](CCCNC(=N)N)C(=O)N1CCC[C@H]1C(=O)NCC(N)=O , thanks.
< 4.40

Hello, the source for this data is ChEMBL document CHEMBL4400527, in case you need it.
